Species on record: Rattus norvegicus
test_details: DrugMatrix - Regimen: Daily Repeat
Assay type: toxicity, organism-based, Sprague-Dawley
Set-up: regimen Daily Repeat, gender Male, age 6-8 weeks
reported_conditions: in vivo, iv, 0 mg/kg, 72 h, tissue Blood, dose level Control, time 3 day, vehicle 100 % SALINE
Recorded NUCLEATED RED BLOOD CELLS, one value per entry.

CO[C@@]12[C@H](COC(N)=O)C3=C(C(=O)C(C)=C(N)C3=O)N1C[C@@H]1N[C@@H]12 [MITOMYCIN]: 0.17 /100WBC
CC(=O)[C@]1(O)Cc2c(O)c3c(c(O)c2[C@@H](O[C@H]2C[C@H](N)[C@H](O)[C@H](C)O2)C1)C(=O)c1ccccc1C3=O [IDARUBICIN]: 0 /100WBC
COC(=O)C[C@](O)(CCC(C)(C)O)C(=O)O[C@@H]1C(OC)=C[C@]23CCCN2CCc2cc4c(cc2[C@H]13)OCO4 [HARRINGTONINE]: 0 /100WBC

INPUT: Which NUCLEATED RED BLOOD CELLS is listed for Cc1c(N)nc([C@H](CC(N)=O)NC[C@H](N)C(N)=O)nc1C(=O)N[C@H](C(=O)N[C@H](C)[C@@H](O)[C@H](C)C(=O)N[C@H](C(=O)NCCc1nc(-c2nc(C(=O)NCCC[S+](C)C)cs2)cs1)[C@@H](C)O)[C@@H](O[C@@H]1O[C@@H](CO)[C@@H](O)[C@H](O)[C@@H]1O[C@H]1O[C@H](CO)[C@@H](O)[C@H](OC(N)=O)[C@@H]1O)c1c[nH]cn1.[Br-] [BLEOMYCIN A2] ?
OUTPUT: 0.17 /100WBC
